Recorded values, source ChEMBL document CHEMBL3351932.

- protocol_summary: Dissociation constant, pKa of the compound
- Type: physicochemical
Task for the reader: assign each of the following molecules its reported pKa.
Please reply with the value in numeric form only.

What pKa value was documented for this molecule, Cn1c(-c2ccccn2)c(C2CCCC2)c2ccc(C(=O)NC3(C(=O)Nc4ccc(/C=C/C(=O)O)cc4)CCC3)cc21 ? 4.5

// same read-out, input: CCOc1cc(NC(=O)C2(NC(=O)c3ccc4c(C5CCCC5)c(-c5ncc(Cl)cn5)n(C)c4c3)CCC2)ccc1/C=C/C(=O)O 6.5

---

- protocol_summary: AUC in rat at 10 mg/kg, po
- Format: ADME, organism-based
- Parameters: dose 10 mg/kg, route oral
- study_conditions: plasma
Give measured AUC for each item. Keep answers brief.
Number in µM·h, nothing else.

For the molecule CCOc1cc(NC(=O)C2(NC(=O)c3ccc4c(C5CCCC5)c(-c5ncc(Cl)cn5)n(C)c4c3)CCC2)ccc1/C=C/C(=O)O , what AUC is on record? 19

CCOc1cc(NC(=O)C2(NC(=O)c3ccc4c(C5CCCC5)c(-c5ccc(F)cn5)n(C)c4c3)CCC2)ccc1/C=C/C(=O)O , same question. 6.1

Next molecule: COCCOc1cc(NC(=O)C2(NC(=O)c3ccc4c(C5CCCC5)c(-c5ncc(Cl)cn5)n(C)c4c3)CCC2)ccc1/C=C/C(=O)O 10.6

Now the molecule Cn1c(-c2ccccn2)c(C2CCCC2)c2ccc(C(=O)NC3(C(=O)Nc4ccc(/C=C/C(=O)O)cc4)CCC3)cc21 [BILB-1941] 23
